Tested on: RPMI-8226 leukemia
test: NCI tumour cell line growth inhibition, 48 h
observed_property: TGI

compound: CC(SC1=CC(=O)c2c(Cl)ccc(O)c2C1=O)C(=O)O (stereo not given)
test_value: 76.4 µM
--
compound: O=c1c2cc(I)ccc2nc(-c2cccs2)n1Nc1ccccc1
test_value: > 100 µM
--
compound: CCc1cc(Cc2cc(CC)c(NC(=O)C3=CC(=O)CC(c4ccc(OC)cc4)O3)c(CC)c2Cl)c(Cl)c(CC)c1NC(=O)C1=CC(=O)CC(c2ccc(OC)cc2)O1 (stereo not given)
test_value: 46.8 µM
--
compound: O=C(Cc1ccccc1)N/N=C(/CCN1CCCC1)CC(c1ccccc1)c1c(O)c2ccccc2oc1=O (stereo not given)
test_value: > 100 µM
--
compound: COc1n[n+]([O-])c(C)cc1[N+](=O)[O-]
test_value: 19.1 µM
--
compound: O=C(/C=C/c1ccc(O)c(O)c1)NC(CO)C(=O)O (stereo not given)
test_value: > 100 µM
--
compound: N#CCCc1nc2ccc(Br)cc2c(=O)n1-c1ccc(O)c([N+](=O)[O-])c1
test_value: 40 µM
--
compound: O=C(CCN(CCO)CCO)Nc1ccc2c(c1)C(=O)c1ccc(NC(=O)CCN(CCO)CCO)cc1C2=O
test_value: > 100 µM
--
compound: CCCCCCN1C(=O)/C(=c2\sc3n(c2=O)C2C(NN=3)N(CC)C(=O)N2CC)c2ccccc21 (stereo not given)
test_value: > 50 µM
--
compound: Cc1cc2c(C(C)C)c(O)c(O)c3coc(/c1=c1/c(C)cc4c(C(C)C)c(=O)c(=O)c5coc1c45)c32
test_value: 34.5 µM
--
compound: CCc1ccccc1NC(=O)CCc1nc(=S)[nH][nH]1
test_value: > 100 µM
--
compound: COc1cc2c(cc1OCCCCCOc1cc(-c3ccc(F)cc3)nc(C)n1)N=C[C@@H]1CCCN1C2=O
test_value: > 24 µM
--
compound: Cc1ccc(S(=O)(=O)N/N=C2\C(=O)C3CC2C(Cl)C3Cl)cc1 (stereo not given)
test_value: > 100 µM
--
compound: Fc1ccc(C(OCCN2CCC3CCC(C2)N3CCCc2ccccc2)c2ccc(F)cc2)cc1 (stereo not given)
test_value: 5.11 µM
--
compound: Nc1ncc2c(n1)-c1ccccc1OC2NC1CC1 (stereo not given)
test_value: > 100 µM
--
compound: Cc1ccccc1C(C#N)/C(=N/NC(=O)c1cc2ccccc2cc1O)C(=O)Nc1cccc(Cl)c1 (stereo not given)
test_value: > 100 µM
--
compound: COc1cc2c(/C=C3/C(=O)Nc4ccccc43)c(Cl)n(Cc3ccccc3)c2cc1C
test_value: > 100 µM
--
compound: O=C(O)C(/C=C/c1ccco1)=N\Nc1nc(-c2ccc(Cl)cc2)cs1
test_value: > 50 µM
--
compound: CCCOc1ccc(/C=C\c2cc(OC)c(OC)c(OC)c2)cc1
test_value: > 100 µM
--
compound: CCOC(=O)c1cc2c(cc1Cl)SC(N(c1ccc(F)cc1)S(=O)(=O)c1ccc(OC)cc1)=NS2(=O)=O
test_value: 51.5 µM
